- system.name: mouse ACVR2A (mouse, UniProt P27038 20-135, limits assumed); note: test concentration or dose not given here
- Sequence (P27038 20-135 limits assumed): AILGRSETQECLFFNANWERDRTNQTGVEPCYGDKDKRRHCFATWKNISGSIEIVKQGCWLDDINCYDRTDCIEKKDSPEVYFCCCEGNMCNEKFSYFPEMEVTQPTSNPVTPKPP
- assay.method.text: ELISA
readout.kind: optical density (OD)
Report the figure in OD without appending any unit label.

370_D06 (antibody, V domains shown, Group I) VH: EVQLLESGGGLVQPGGSLRLSCAASGFTFSSYGMNWVRQAPGKGLEWVASINYNGGYTSYADSVKGRFTISRDNSKNTLYLQMNSLRAEDTAVYYCARAANWHDTHLDYWGQGTLVTVSS VL: DIQMTQSPSSLSASVGDRVTITCRASQSIISYLNWYQQKPGKAPKLVIYAATSLASGVPSRFSGSGSGTDFTLTISSLQPEDFATYYCQQSYSSPLTFGGGTKVEIK ... 2.66
365_B08 (antibody, V domains shown, Group II) VH: EVQLLESGGGLVQPGGSLRLSCAASGFTFDSYGMNWVRQAPGKGLEWVSNINYNSGYKGYADSVKGRFTISRDNSKNTLYLQMNSLRAEDTAVYYCARAATWHDTHLDYWGQGTLVTVSS VL: DIQMTQSPSSLSASVGDRVTITCRASQSIVTYLNWYQQKPGKAPKLLIYAATSRASGVPSRFSGSGSGTDFTLTISSLQPEDFATYYCQQSYSSPLTFGGGTKVEIK ... 1.26
370_H05 (antibody, V domains shown, Group II) VH: EVQLLESGGGLVQPGGSLRLSCAASGFTFSSYGMHWVRQAPGKGLEWVSNINYNGGYTSYADSVKGRFTISRDNSKNTLYLQMNSLRAEDTAVYYCARAATWHDTHLDYWGQGTLVTVSS VL: DIQMTQSPSSLSASVGDRVTITCRASQSILSYLNWYQQKPGKAPKLLIYAASSLQSGVPSRFSGSGSGTDFTLTISSLQPEDFATYYCQQSDSLPLTFGGGTKVEIK ... 3.14
368_B11 (antibody, V domains shown, Group I) VH: EVQLLESGGGLVQPGGSLRLSCAASGFTFDSYGMHWVRQAPGKGLEWVSGINYNGGYKSYADSVKGRFTISRDNSKNTLYLQMNSLRAEDTAVYYCARAANWHDTHLDYWGQGTLVTVSS VL: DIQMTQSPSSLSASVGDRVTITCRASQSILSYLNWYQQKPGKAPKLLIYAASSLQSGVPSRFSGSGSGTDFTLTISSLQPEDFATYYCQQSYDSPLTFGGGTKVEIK ... 2.35
365_F02 (antibody, V domains shown, Group III) VH: EVQLLESGGGLVQPGGSLRLSCAASGFTFSSYSMNWVRQAPGKGLEWVSGINYNGGYKGYADSVKGRFTISRDNSKNTLYLQMNSLRAEDTAVYYCARGANWHDTHLDYWGQGTLVTVSS VL: DIQMTQSPSSLSASVGDRVTITCRASQSILTYVNWYQQKPGKAPKLLIYAATSRHSGVPSRFSGSGSGTDFTLTISSLQPEDFATYYCQQSYDTPLTFGGGTKVEIK ... 3.05

Kindly note the recorded optical density for 367_F06 (antibody, V domains shown, Group I) VH: EVQLLESGGGLVQPGGSLRLSCAASGFTFSSYGMNWVRQAPGKGLEWVSSINYNSGYTSYADSVKGRFTISRDNSKNTLYLQMNSLRAEDTAVYYCARAANWHDTALDYWGQGTLVTVSS VL: DIQMTQSPSSLSASVGDRVTITCRASQSISSYVNWYQQKPGKAPKLLIYAVTSRASGVPSRFSGSGSGTDFTLTISSLQPEDFATYYCQQSYDSPLTFGGGTKVEIK , which is 2.04

Kindly note the recorded optical density for 371_A09 (antibody, V domains shown, Group I) VH: EVQLLESGGGLVQPGGSLRLSCAASGFTFSSYGMNWVRQAPGKGLEWVSGINYNGGYKSYADSVKGRFTISRDNSKNTLYLQMNSLRAEDTAVYYCARAANWHDTALDYWGQGTLVTVSS VL: DIQMTQSPSSLSASVGDRVTITCRASQSIVTYVNWYQQKPGKAPKLVIYAATSRASGVPSRFSGSGSGTDFTLTISSLQPEDFATYYCQQSYDSPLTFGGGTKVEIK , which is 2
